biological target: UniProt:P29597; assay: JAK assay (KINASE-GLO luminescent kinase assay), TYK2; format: biochemical; settings: 10 nM JAK enzyme, 800 nM Abl peptide, room temperature 75 min
Reported IC50 values are given for each entry in this list.

Worked examples, 5 compounds total:
Cc1cnc(Nc2ccc(CN3CCOCC3)cc2)nc1 : < 100 nM
Clc1cnc(Nc2cccc(CN3CCC3)c2)nc1 : < 10 nM
Cc1cnc(Nc2ccc3c(c2)C(=O)N(C)C3=O)nc1-c1cnn(CC2(Cl)CC2)c1 : < 100 nM
CC(C)(C)OC(=O)N1CCN(c2ccc(Nc3ncc(Cl)c(-c4cnn(CCC#N)c4)n3)cc2)CC1 : < 10 nM
Cc1cnc(Nc2ccnc(CN(C)C)c2)nc1-c1cnn(CC2(CF)CCC2)c1 : < 100 nM

q: Using the record for Cc1cnc(Nc2ccc(CNC(=O)[C@H](C)N)cc2)nc1-c1cnn(CC2(CF)CC2)c1 [C[C@H](N)C(═O)NCC1═CC═C(NC2═NC] , state its measured IC50.
a: < 100 nM

q: Using the record for COc1cnc(Nc2cc(COC(=O)c3ccccc3)ns2)nc1-c1cnn(CC2(CF)CC2)c1 , state its measured IC50.
a: < 100 nM

q: Using the record for N#CCCn1cc(-c2nc(Nc3cc(C(F)(F)F)no3)ncc2Cl)cn1 , state its measured IC50.
a: > 50000 nM

q: Using the record for Cc1cnc(NC(=O)Nc2ccc(Cl)cc2)nc1-c1cnn(CC2(CF)CC2)c1 , state its measured IC50.
a: > 50000 nM

q: Using the record for N#CCC1(Cn2cc(-c3ccnc(Nc4ccns4)n3)cn2)CC1 [N#CCC1(CC1)C[N]2C═C(C═N2)C3═CC═NC] , state its measured IC50.
a: < 100 nM

* * *

Reported IC50 values are given for each entry in this list.
target: JAK3 (Homo sapiens, UniProt P52333); assay: JAK assay (KINASE-GLO luminescent kinase assay), JAK3; format: biochemical; conditions: 10 nM JAK enzyme, 800 nM Abl peptide, room temperature 75 min
Sequence (P52333 whole entry): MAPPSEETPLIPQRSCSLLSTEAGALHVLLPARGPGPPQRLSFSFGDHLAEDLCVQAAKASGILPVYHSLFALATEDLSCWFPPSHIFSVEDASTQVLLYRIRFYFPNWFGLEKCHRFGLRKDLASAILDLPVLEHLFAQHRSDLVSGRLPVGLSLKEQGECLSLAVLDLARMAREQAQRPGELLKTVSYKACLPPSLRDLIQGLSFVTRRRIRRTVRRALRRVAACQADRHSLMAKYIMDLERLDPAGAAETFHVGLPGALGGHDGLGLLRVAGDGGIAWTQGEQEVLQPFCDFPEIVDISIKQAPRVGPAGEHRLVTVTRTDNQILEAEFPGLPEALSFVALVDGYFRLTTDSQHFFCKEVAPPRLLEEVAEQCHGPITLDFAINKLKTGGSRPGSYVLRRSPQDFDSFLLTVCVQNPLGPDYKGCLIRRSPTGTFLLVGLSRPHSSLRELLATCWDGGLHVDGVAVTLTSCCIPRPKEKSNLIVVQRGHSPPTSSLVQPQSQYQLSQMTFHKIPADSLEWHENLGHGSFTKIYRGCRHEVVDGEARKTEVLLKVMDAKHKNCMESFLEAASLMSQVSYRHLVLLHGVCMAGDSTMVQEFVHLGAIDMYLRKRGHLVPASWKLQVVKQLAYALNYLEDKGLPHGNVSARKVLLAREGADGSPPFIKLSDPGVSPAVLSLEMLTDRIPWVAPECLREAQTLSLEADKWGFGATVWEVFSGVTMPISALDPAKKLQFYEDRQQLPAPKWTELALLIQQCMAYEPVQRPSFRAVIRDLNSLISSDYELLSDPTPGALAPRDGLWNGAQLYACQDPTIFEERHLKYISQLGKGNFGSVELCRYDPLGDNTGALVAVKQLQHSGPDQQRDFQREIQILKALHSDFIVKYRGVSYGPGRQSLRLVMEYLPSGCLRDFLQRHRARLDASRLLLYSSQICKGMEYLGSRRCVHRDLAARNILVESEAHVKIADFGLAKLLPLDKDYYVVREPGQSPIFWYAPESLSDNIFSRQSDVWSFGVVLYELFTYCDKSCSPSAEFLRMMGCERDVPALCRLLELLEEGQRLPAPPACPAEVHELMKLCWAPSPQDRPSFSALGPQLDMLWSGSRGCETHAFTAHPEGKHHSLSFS

Worked examples, 5 compounds total:
N#CCCn1cc(-c2ccnc(NC(=O)C3CC3)n2)cn1 [O═C(NC1═NC(═CC═N1)C2═C[N]] : > 50000 nM
Cc1cnc(Nc2ccc(N3CC(N(C)C)C3)cc2)nc1-c1cnn(CC2(CF)CC2)c1 : < 10 nM
Cc1cnc(Nc2ccnc(OCCN(C)C)c2)nc1-c1cnn(CC2(CC#N)CC2)c1 : < 100 nM
Cc1cnc(NCCCN2CCOCC2)nc1-c1cnn(CCC#N)c1 [CC1═C(N═C(NCCCN2CCOCC2)N═C1)C3═C[N]] : > 50000 nM
Cc1cnc(Nc2cccc(CN3CCN(C)CC3)c2)nc1-c1cnn(CC2(CF)CC2)c1 : < 100 nM

q: Using the record for Cc1cnc(Nc2ccc(S(C)(=O)=O)c(F)c2)nc1-c1cnn(CC2(Cl)CC2)c1 [CC1═C(N═C(NC2═CC═C(C(═C2)F)[S]] , state its measured IC50.
a: < 100 nM

q: Using the record for CS(=O)(=O)N(c1ncc(Cl)c(-c2cnn(CCC#N)c2)n1)S(C)(=O)=O [C[S](═O)(═O)NC1═NC(═C] , state its measured IC50.
a: < 100000 nM

q: Using the record for Cc1cnc(Nc2ccc(N3CCOCC3)cc2)nc1-c1cnn(CC2(C#N)CC2)c1 , state its measured IC50.
a: < 10 nM

q: Using the record for Cc1cnc(Nc2cccc(C(N)=O)c2)nc1-c1cnn(CC2(CF)CC2)c1 [CC1═C(N═C(NC2═CC═CC(═C2)C] , state its measured IC50.
a: < 100 nM

q: Using the record for Cc1cnc(Nc2cc(COC(=O)CCN3CCN(C)CC3)ns2)nc1-c1cnn(CC2(CF)CC2)c1 , state its measured IC50.
a: < 10 nM

q: Using the record for Clc1cnc(NC23CC(C2)C3)nc1-c1cnn(Cc2cccs2)c1 [ClC1═C(N═C(NC23CC(C2)C3)N═C1)C4═C[N]] , state its measured IC50.
a: < 100000 nM

q: Using the record for Cc1cc(Nc2ncc(C)c(-c3cnn(CC4(CN(C)C)CC4)c3)n2)sn1 [CN(C)CC1(CC1)C[N]2C═C(C═N2)C3═C] , state its measured IC50.
a: < 100 nM

q: Using the record for N#CCC1(Cn2cc(-c3ccnc(Nc4ccns4)n3)cn2)CC1 [N#CCC1(CC1)C[N]2C═C(C═N2)C3═CC═NC] , state its measured IC50.
a: < 100 nM

* * *

Reported IC50 values are given for each entry in this list.
target: TYK2 (Homo sapiens); assay: JAK assay (KINASE-GLO luminescent kinase assay), TYK2; format: biochemical; conditions: 10 nM JAK enzyme, 800 nM Abl peptide, room temperature 75 min
Sequence (P29597 whole entry): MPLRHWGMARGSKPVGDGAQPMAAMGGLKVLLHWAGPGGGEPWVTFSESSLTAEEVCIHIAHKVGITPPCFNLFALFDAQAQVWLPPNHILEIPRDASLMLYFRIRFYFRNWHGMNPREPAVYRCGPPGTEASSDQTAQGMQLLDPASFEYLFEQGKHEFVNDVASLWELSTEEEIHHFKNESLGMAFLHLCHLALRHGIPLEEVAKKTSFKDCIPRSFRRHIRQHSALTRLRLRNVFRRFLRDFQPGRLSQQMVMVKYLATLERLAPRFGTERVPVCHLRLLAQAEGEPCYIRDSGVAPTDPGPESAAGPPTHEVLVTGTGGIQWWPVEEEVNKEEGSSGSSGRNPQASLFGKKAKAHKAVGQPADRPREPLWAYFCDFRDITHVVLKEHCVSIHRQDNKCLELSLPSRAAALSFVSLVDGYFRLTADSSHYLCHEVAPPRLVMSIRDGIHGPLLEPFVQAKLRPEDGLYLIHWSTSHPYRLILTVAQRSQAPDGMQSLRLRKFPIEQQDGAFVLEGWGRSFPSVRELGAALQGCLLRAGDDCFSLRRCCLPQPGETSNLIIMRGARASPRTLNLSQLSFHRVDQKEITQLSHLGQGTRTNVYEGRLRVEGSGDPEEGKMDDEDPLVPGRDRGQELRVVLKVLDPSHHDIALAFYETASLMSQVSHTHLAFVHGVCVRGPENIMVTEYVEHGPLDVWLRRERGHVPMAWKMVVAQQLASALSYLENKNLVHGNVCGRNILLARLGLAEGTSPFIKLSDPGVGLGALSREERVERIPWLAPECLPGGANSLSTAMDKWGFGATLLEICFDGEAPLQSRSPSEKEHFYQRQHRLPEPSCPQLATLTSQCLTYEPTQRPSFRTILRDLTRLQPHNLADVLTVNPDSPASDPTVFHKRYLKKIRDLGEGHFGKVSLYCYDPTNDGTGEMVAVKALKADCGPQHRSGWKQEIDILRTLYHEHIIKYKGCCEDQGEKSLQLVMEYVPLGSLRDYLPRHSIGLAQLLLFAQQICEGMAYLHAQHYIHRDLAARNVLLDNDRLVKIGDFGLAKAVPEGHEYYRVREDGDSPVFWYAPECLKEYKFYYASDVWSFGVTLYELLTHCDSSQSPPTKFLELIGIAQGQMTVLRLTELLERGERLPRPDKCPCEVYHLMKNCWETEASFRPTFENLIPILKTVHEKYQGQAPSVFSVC

N#CCCn1cc(-c2nc(Nc3cccc(C(=O)O)c3)ncc2Cl)cn1 [OC(═O)C1═CC═CC(═C1)NC2═NC] : < 1000 nM

q: Using the record for CNCc1cc(Nc2ncc(C)c(-c3cnn(CC4(CF)CC4)c3)n2)sn1 [CNCC1═NSC(═C1)NC2═NC(═C] , state its measured IC50.
a: < 100 nM

q: Using the record for Cc1cnc(Nc2cc(COC(=O)CCN3CCOCC3)ns2)nc1-c1cnn(CC2(CF)CC2)c1 [CC1═C(N═C(NC2═CC(═NS2)COC] , state its measured IC50.
a: < 10 nM

q: Using the record for Cc1ccc(Nc2ncc(C)c(-c3cnn(CC4(Cl)CC4)c3)n2)cc1S(C)(=O)=O [CC1═CC═C(NC2═NC(═C(C)C═N2)C3═C[N]] , state its measured IC50.
a: < 100 nM

q: Using the record for COC(=O)c1cc(Nc2ncc(C)c(-c3cnn(CCC#N)c3)n2)ccc1N1CCOCC1 [COC(═O)C1═CC(═CC═C1)NC2═NC(═C] , state its measured IC50.
a: < 100 nM

q: Using the record for Cc1cnc(Nc2ccc(S(C)(=O)=O)c(F)c2)nc1-c1cnn(CC2(Cl)CC2)c1 [CC1═C(N═C(NC2═CC═C(C(═C2)F)[S]] , state its measured IC50.
a: < 10 nM

q: Using the record for Clc1cnc(NC23CC(C2)C3)nc1-c1cnn(Cc2cccs2)c1 [ClC1═C(N═C(NC23CC(C2)C3)N═C1)C4═C[N]] , state its measured IC50.
a: > 50000 nM

q: Using the record for Cc1cnc(NC2CCOCC2)nc1-c1cnn(CCC#N)c1 [CC1═C(N═C(NC2CCOCC2)N═C1)C3═C[N]] , state its measured IC50.
a: > 50000 nM

q: Using the record for Cc1cnc(NC(=O)Oc2ccc(Cl)cc2)nc1-c1cnn(CC2(CF)CC2)c1 [CC1═C(N═C(NC(═O)OC2═CC═C] , state its measured IC50.
a: < 100000 nM

q: Using the record for CC(=O)OCCc1ccc(Nc2ncc(Cl)c(-c3cnn(CCC#N)c3)n2)cc1 [CC(═O)OCCC1═CC═C(NC2═NC(═C] , state its measured IC50.
a: < 10 nM

* * *

biological target: UniProtKB P29597; assay: JAK assay (KINASE-GLO luminescent kinase assay), TYK2; format: biochemical; conditions: 10 nM JAK enzyme, 800 nM Abl peptide, room temperature 75 min
metric_name: IC50

Worked examples, 3 molecules total:
CS(=O)(=O)N(c1ncc(Cl)c(-c2cnn(CCC#N)c2)n1)S(C)(=O)=O [C[S](═O)(═O)NC1═NC(═C] : < 100000 nM
Cc1cncc(Nc2ncc(C)c(-c3cnn(CC4(CF)CCC4)c3)n2)c1 [CC1═CN═CC(═C1)NC2═NC(═C] : < 100 nM
N#CCCn1cc(-c2ccnc(NC(=O)C3CC3)n2)cn1 [O═C(NC1═NC(═CC═N1)C2═C[N]] : < 100000 nM

q: Using the record for Cc1cnc(Nc2cccc(CCO)c2)nc1-c1cnn(CC2(CF)CC2)c1 [CC1═C(N═C(NC2═CC(═CC═C2)CCO)N═C1)C3═C[N]] , state its measured IC50.
a: < 10 nM
